MEASURED TARGET: Human rhinovirus A protease (Human rhinovirus sp.)
Sequence (Q4U254 whole entry): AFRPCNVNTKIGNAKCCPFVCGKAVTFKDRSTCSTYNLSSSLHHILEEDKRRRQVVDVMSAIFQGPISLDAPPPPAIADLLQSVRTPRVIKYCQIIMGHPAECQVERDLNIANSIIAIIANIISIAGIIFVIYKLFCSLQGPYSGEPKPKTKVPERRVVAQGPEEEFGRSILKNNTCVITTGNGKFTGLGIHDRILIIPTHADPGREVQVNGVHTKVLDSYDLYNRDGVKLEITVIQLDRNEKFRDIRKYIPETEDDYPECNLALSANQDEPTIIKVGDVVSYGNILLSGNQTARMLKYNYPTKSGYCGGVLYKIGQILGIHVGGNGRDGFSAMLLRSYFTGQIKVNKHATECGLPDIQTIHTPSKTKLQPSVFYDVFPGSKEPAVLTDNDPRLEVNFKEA
Where a SMILES comes first, the peptide text is derived from it. The star is where a group is joined. Boc = CC(C)(C)OC(=O)*
Listed here: items and their measured IC50.
QUANTITY: IC50 (µM)

[
  {
    "MOLECULE": "CC(C)C[C@H](NC(=O)OC(C)(C)C)C(=O)N[C@@H](Cc1ccccc1)C(=O)N[C@H](C=O)CCC(N)=O (Boc-Leu-Phe-Gln-aldehyde)",
    "UNIT DESCRIPTOR": "µM",
    "COMPARATOR": ">",
    "EXPERIMENTAL VALUE": 80
  },
  {
    "MOLECULE": "CC(C)C[C@H](N)C(=O)N[C@@H](Cc1ccccc1)C(=O)N[C@H](C=O)CCC(N)=O (H-Leu-Phe-Gln-aldehyde)",
    "UNIT DESCRIPTOR": "µM",
    "COMPARATOR": "=",
    "EXPERIMENTAL VALUE": 1
  },
  {
    "MOLECULE": "CC(=O)N[C@@H](CC(C)C)C(=O)N[C@@H](Cc1ccccc1)C(=O)N[C@H](C=O)CCC(N)=O (Ac-Leu-Phe-Gln-aldehyde)",
    "UNIT DESCRIPTOR": "µM",
    "COMPARATOR": "=",
    "EXPERIMENTAL VALUE": 2.7
  },
  {
    "MOLECULE": "CC(C)C[C@H](NC(=O)[C@@H](NC(=O)OC(C)(C)C)C(C)C)C(=O)N[C@@H](Cc1ccccc1)C(=O)N[C@H](C=O)CCC(N)=O (Boc-VLFQ-aldehyde)",
    "UNIT DESCRIPTOR": "µM",
    "COMPARATOR": "=",
    "EXPERIMENTAL VALUE": 0.6
  },
  {
    "MOLECULE": "CC(=O)NCC(=O)N[C@@H](Cc1ccccc1)C(=O)N[C@H](C=O)CCC(N)=O (Ac-Gly-Phe-Gln-aldehyde)",
    "UNIT DESCRIPTOR": "µM",
    "COMPARATOR": "=",
    "EXPERIMENTAL VALUE": 16
  },
  {
    "MOLECULE": "CC(C)(C)OC(=O)N[C@@H](Cc1ccccc1)C(=O)N[C@H](C=O)CCC(N)=O",
    "UNIT DESCRIPTOR": "µM",
    "COMPARATOR": ">",
    "EXPERIMENTAL VALUE": 80
  },
  {
    "MOLECULE": "CC(C)CC(=O)N[C@@H](Cc1ccccc1)C(=O)N[C@H](C=O)CCC(N)=O",
    "UNIT DESCRIPTOR": "µM",
    "COMPARATOR": ">",
    "EXPERIMENTAL VALUE": 80
  },
  {
    "MOLECULE": "CC(C)C[C@H](NC(=O)[C@@H](NC(=O)OC(C)(C)C)C(C)C)C(=O)N[C@@H](Cc1ccccc1)C(=O)NCC=O (Boc-VLFG-aldehyde)",
    "UNIT DESCRIPTOR": "µM",
    "COMPARATOR": "=",
    "EXPERIMENTAL VALUE": 10
  }
]
